Measured values drawn from ChEMBL document CHEMBL3860107 for this set.

- ASSAY_DETAILS: Permeability from apical to basolateral side in human Caco2 cells at 10 uM incubated for 120 mins by LC-MS/MS method
- Assay type: ADME, cell-based
- ASSAY_CONDITIONS: Caco-2, read-out: permeability
OBSERVABLE: Papp A→B at 2 h, 10 µM
Please provide the amount together with its unit, number first.

// recorded Papp A→B at 2 h, 10 µM for "Cc1nc2cc(-n3ncc(C(=O)c4cc5ccc(Br)cc5[nH]4)c3N)ccc2[nH]1" : 2.2 ×10⁻⁶ cm/s

====

Form field: pIC50 (one value per entry).
- STUDY_TARGET: Voltage-gated inwardly rectifying potassium channel KCNH2 (Homo sapiens, UniProt Q12809)
- Sequence (Q12809 whole entry): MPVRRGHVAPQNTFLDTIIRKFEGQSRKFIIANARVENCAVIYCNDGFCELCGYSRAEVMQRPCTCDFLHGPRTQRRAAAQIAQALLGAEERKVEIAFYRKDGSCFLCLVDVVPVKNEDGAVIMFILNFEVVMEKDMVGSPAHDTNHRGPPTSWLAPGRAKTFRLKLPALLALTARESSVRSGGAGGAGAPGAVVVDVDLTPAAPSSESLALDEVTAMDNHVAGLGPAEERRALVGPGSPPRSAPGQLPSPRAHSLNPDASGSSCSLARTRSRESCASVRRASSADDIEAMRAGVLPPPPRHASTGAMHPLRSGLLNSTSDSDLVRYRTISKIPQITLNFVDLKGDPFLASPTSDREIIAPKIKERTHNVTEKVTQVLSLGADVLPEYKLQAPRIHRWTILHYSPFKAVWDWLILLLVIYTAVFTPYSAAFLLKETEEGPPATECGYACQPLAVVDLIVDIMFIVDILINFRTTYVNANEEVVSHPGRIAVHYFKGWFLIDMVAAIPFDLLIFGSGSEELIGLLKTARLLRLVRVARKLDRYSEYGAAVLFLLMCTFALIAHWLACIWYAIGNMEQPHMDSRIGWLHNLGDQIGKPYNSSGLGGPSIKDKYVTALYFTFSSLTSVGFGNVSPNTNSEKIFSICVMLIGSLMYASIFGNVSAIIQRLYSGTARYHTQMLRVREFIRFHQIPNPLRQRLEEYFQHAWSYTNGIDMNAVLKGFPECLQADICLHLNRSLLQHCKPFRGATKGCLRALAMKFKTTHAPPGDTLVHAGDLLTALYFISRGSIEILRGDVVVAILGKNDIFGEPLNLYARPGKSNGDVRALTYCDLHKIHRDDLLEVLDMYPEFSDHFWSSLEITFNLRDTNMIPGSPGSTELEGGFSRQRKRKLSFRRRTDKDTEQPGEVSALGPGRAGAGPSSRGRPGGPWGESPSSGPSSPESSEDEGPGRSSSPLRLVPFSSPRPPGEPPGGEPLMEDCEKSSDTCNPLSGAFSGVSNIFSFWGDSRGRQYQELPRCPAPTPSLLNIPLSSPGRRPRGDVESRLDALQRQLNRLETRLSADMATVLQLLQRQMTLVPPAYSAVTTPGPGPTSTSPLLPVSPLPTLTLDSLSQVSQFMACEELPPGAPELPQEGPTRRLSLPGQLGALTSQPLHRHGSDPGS
- ASSAY_DETAILS: Inhibition of human ERG expressed in CHO cells assessed as reduction in channel currents at -80 mV holding potential by automated whole-cell patch clamp method
Note on pIC50: it is the negative log10 of concentration, concentration in mol/L.

Recorded pIC50, per entry:
Cc1nc2cc(-n3ncc(C(=O)c4cc5ccccc5[nH]4)c3N)ccc2[nH]1 [FGFR INHIBITOR DEBIO 1347] ... 5.16
Cc1ccc2cc(C(=O)c3cnn(-c4ccc5nc(C)[nH]c5c4)c3N)[nH]c2c1 ... 5.16

Lab note: "Cc1nc2cc(-n3ncc(C(=O)c4cc5ccc(CN6CCC(F)(F)CC6)cc5[nH]4)c3N)ccc2[nH]1" gave pIC50 of 5.07
